// data source = patent US4895842A

# System tested: human plasma kallikrein (Homo sapiens, UniProt P03952)
# Sequence (P03952 391-638 limits assumed): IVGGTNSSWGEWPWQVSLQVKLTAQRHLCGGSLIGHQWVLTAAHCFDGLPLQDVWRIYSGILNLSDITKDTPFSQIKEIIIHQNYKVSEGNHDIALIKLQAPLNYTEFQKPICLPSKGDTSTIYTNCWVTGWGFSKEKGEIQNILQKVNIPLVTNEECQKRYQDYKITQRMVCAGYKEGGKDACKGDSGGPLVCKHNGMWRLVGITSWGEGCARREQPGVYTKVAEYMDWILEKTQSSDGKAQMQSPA
# Sequence (P03952 20-390 partner limits assumed): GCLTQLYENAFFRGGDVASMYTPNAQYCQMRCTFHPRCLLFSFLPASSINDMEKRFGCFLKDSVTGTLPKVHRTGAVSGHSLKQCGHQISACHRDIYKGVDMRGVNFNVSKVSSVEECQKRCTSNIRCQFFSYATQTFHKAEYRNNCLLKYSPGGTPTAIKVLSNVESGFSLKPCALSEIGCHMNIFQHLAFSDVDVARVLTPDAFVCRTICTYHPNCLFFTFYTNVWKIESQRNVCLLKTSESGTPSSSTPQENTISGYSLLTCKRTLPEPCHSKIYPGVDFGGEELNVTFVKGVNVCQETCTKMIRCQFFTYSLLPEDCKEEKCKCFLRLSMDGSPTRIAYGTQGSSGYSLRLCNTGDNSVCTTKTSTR
# Test: Anti-plasma kallikrein activity: inhibition of S-2302 decomposition
# Type: biochemical
# Experimental context: Table 2; S-2302 substrate, pH 7.8, 37° C.; read-out: Plasma Kallikrein S-2302 (I50)
pIC50: −log10 of the molar value. Counter-ions that a name gives are not always drawn.
Quantity: pIC50

Molecule | Measured value
NC[C@H]1CC[C@H](C(=O)N[C@@H](Cc2ccc(OCc3ccccc3)cc2)C(=O)Nc2cccc([N+](=O)[O-])c2)CC1 | 5.92
NC[C@H]1CC[C@H](C(=O)NC(Cc2ccc(N)cc2)C(=O)Nc2ccc(C(=O)c3ccccc3)cc2)CC1 (stereo partly shown) | 5.07
NC[C@H]1CC[C@H](C(=O)N[C@@H](Cc2ccc(OCc3ccccc3)cc2)C(=O)Nc2ccnc(Cl)c2)CC1 [Compound No. 59, hydrochloride] | 6.38
Cc1ccc(NC(=O)[C@H](Cc2ccc(OCc3ccccc3)cc2)NC(=O)c2ccc(CN)cc2)cc1 | 4.62
NC[C@H]1CC[C@H](C(=O)N[C@@H](Cc2ccc(OCc3cccc(Cl)c3)cc2)C(=O)Nc2ccc(C(=O)c3ccccc3)cc2)CC1 | 5.92

P. Cc1ccc(NC(=O)[C@H](Cc2ccc(OCc3ccccc3)cc2)NC(=O)c2ccc(CN)cc2)cc1C
Q. CC1CCCC(NC(=O)[C@H](Cc2ccc(OCc3ccccc3)cc2)NC(=O)c2ccc(CN)cc2)C1C (stereo partly shown)
[Q] Of the two listed items, which has the higher pIC50? First: P Second: Q Returns: label corresponding to the selected item.
[A] P
(P: 4.66, Q: 4.40)
